measurement.kind: melting point

Solved cases below.
compound	recorded.result
CCOCCn1c(N2CCCN(CCC3(c4ccncc4)CCN(C(=O)c4cc(OC)c(OC)c(OC)c4)C3)CC2)nc2ccccc21 (centres undefined)	85 to 95 °C
O=S(=O)(Nc1ccccc1OCCCN1CCC(OC(c2ccccc2)c2ccccc2)CC1)c1ccccc1	131 to 132 °C

Query: Return value of melting point for input FC1(c2cn(-c3ccc(Br)cc3)nn2)CN2CCC1CC2 (centres undefined) , no commentary.
Reply: 127 °C

Query: Return value of melting point for input "Nc1ccc(-c2ncon2)cc1" , no commentary.
Reply: 97 to 100 °C

Query: Return value of melting point for input "C=CCOc1cc(O)c(C#N)c(Cl)c1" , no commentary.
Reply: 175 to 176 °C

Query: Return value of melting point for input "C[C@H](Oc1cc(-c2c3ccccc3c(Br)c3sc4ccccc4c23)ccc1Br)C(=O)O" , no commentary.
Reply: 132 to 134 °C

Query: Return value of melting point for input "O=CCCCOC(c1ccccc1)(c1ccccc1)c1ccccc1" , no commentary.
Reply: 62 to 65 °C

Query: Return value of melting point for input "CCN(CC1CCCC1)c1nc2c(cc1CN(Cc1cc(C(F)(F)F)cc(C(F)(F)F)c1)c1nnn(C)n1)c(C)nn2C" , no commentary.
Reply: 84 to 86 °C

Query: Return value of melting point for input "O=C(C=Cc1ccc(Cl)cc1)NN1CC(=O)NC1=O" , no commentary.
Reply: 230 to 235 °C

---

melting point for assorted compounds

compound	melting point
CC(C)CCn1cc(C(=O)c2ccccc2)c(=O)c2cn(C)nc21	231 to 233 °C

Query: Return value of melting point for input "CCc1ncnc(N[C@H]2CS[C@@H](c3ccc(C)cc3)SC2)c1Cl" , no commentary.
Reply: 138 to 139 °C

Query: Return value of melting point for input "CCCn1cc2c(n1)c(N)nc1ccccc12" , no commentary.
Reply: 225 to 227 °C

Query: Return value of melting point for input CNC(=O)SC(C(=O)O)c1ccccc1 (stereo unspecified) , no commentary.
Reply: 128 to 129 °C

Query: Return value of melting point for input CCOC(=O)C1=NN(c2cccc(Cl)c2)C(c2ccccc2)CC1 (stereo unspecified) , no commentary.
Reply: 125 to 126 °C

Query: Return value of melting point for input "COc1cccc(CNc2ncnc3c2sc2nc(N(C)C)c4c(c23)CC(C)(C)OC4)c1OC" , no commentary.
Reply: 89.9 to 90.7 °C

Query: Return value of melting point for input "C[C@H](NC(=O)c1cccnc1Oc1ccc(F)cc1)c1cccs1" , no commentary.
Reply: 59 to 61 °C

Query: Return value of melting point for input CCCC(=O)NCCC1CCc2cc(OC)ccc21 (single isomer, unassigned; (-)) , no commentary.
Reply: 79 to 80 °C

Query: Return value of melting point for input Fc1ccc(C(c2ccc(Cl)cc2Cl)C(F)n2cncn2)cc1 (stereo unspecified) , no commentary.
Reply: 96 to 104 °C

Query: Return value of melting point for input CCC(C)NC1=NS(=O)(=O)c2cc(C(F)(F)F)ccc2N1 (stereo unspecified) , no commentary.
Reply: 234 to 236 °C

---

measurement.kind: melting point

Solved cases below.
molecule	measurement.kind	recorded.result
CCCCCCCCCCCCOC(=O)CCC(=O)c1ccc(NCc2ccc3ccc4nc(C)[nH]c(=O)c4c3c2)cc1	melting point	213 to 214 °C
CCOC(=O)C1=CC(C(=O)c2cc(Cl)ccc2O)=CN2CCc3c([nH]c4ccccc34)C12C(=O)OCC (stereo not given)	melting point	216 °C
CCOC(=O)C1=NOC2(CCC(C(C)(C)CC)CC2)C1 (stereo not given)	melting point	82 to 87 °C
COc1nc2cc(Cl)c(Cl)c(CS(C)(=O)=O)c2nc1OC	melting point	161 to 163 °C
COCCc1nc2cnc3cc(Br)cnc3c2n1CC(C)(C)O	melting point	125 °C

API: the following record is the query input.
Query: Return value of melting point for input "COc1ccc2c(=O)[nH]nc(C)c2c1" , no commentary.
Reply: 252 to 254 °C

---

melting point for assorted molecules

molecule	recorded.result
CC(=O)N1CCC(CCCCC(=O)O)CC1	198 to 203 °C
NC(=O)c1ccc(S(=O)(=O)NCCC2CCC(CC(=O)O)CC2)cc1 (stereo unspecified)	172 to 174 °C
COc1ccc(C(=O)Nc2cccnc2)cc1N	193 to 196 °C
C[C@H](OC(=O)CCC(=O)O[C@@H](C)C(=O)O)C(=O)O	59 to 61 °C
O=C(O)c1cc(SCCO)ccc1O	136 °C
COc1ccc(C(=O)CCCCCN2CCC(CNC(=O)c3cc(Cl)c(N)cc3OC)CC2)cc1	133 to 135 °C
CC(C)(C)C(=O)Nc1ccccc1-c1cc2ccccc2[nH]1	132 to 136 °C
CCCCCCCCCCCCC/C=C1\C(=O)OCC1(CO)COC(C)=O (stereo unspecified)	48 °C
CN1CCC23CCCCC2C1Cc1ccc(Oc2nc(-c4ccccc4)nc4ccccc24)cc13 (single isomer, unassigned; (+))	138 to 139 °C
CCOC(=O)COc1cccc2c1OCC(Br)C2=O (stereo unspecified)	92 to 93 °C

Query: Return value of melting point for input Cc1c(CCC2CC(OC3CCCCO3)CC(=O)O2)c2c(c(C)c1OC(=O)c1ccccc1)CC(C)(C)O2 (stereo unspecified) , no commentary.
Reply: 139 to 140 °C

Query: Return value of melting point for input NS(=O)(=O)c1nc2ccc(OCC3CO3)cc2s1 (stereo unspecified) , no commentary.
Reply: 149 to 152 °C

---

melting point for assorted compounds

Solved cases below.
compound	melting point
Cn1c(CC(=O)O)c(-c2ccccc2)c2cc(Cl)ccc21	141 to 142 °C
CC(C)C1COCc2nc3c(N)nc4cc(OCCN5CCOCC5)ccc4c3n21 (stereo not given)	194 to 195 °C
CCOC(=O)c1cnn2ccc3c(c12)CCO3	138 to 139 °C
CCOC(=O)C(=CNc1cc([N+](=O)[O-])ccc1O)C(=O)c1cc(F)c(F)c(F)c1F	222 °C

API: the following record is the query input.
Query: Return value of melting point for input "COC(=O)CCc1cc2cc(Cl)ccc2n1S(=O)(=O)c1cccc2c(C(=O)CN)cccc12" , no commentary.
Reply: 206 to 210 °C

---

melting point for assorted compounds

Solved cases below.
compound	melting point
Nc1nc(C(=O)O)c(-c2ccncc2)s1	211 °C
CC(C)(C)Sc1c(CC(C)(C)C(=O)O)n(Cc2ccc(Cl)cc2)c2ccc(OCc3ccncc3)cc12	238 to 240 °C
O=S1(=O)NC(c2ccccc2)Nc2c(Br)cc(Br)cc21 (stereo not given)	186 to 189 °C
CCOC(=O)c1c(CN(CCC(C)C)CCC(C)C)nc2cc(OC)c(OC)cc2c1-c1ccc(OC)c(OC)c1	114 to 115 °C

API: the following record is the query input.
Query: Return value of melting point for input "S=C(Nc1cccc2c1[nH]c1ccccc12)SCc1ccccc1" , no commentary.
Reply: 66 to 68 °C

---

measurement.kind: melting point

compound	melting point
N#CN1CCN(c2nn(S(=O)(=O)c3ccccc3)c3cc(Cl)ccc23)CC1	179 to 181 °C
CC(=O)NC[C@H]1CN(c2ccc(-c3ncon3)c(F)c2)C(=O)O1	197 to 199 °C
N#C/C=C1\CCc2cc(Br)c3c(c21)CCO3	200 to 203 °C
CC(C)(C)OC(=O)[C@@H]1CCCN1C(=O)CNS(=O)(=O)c1cccc2cccnc12	150 to 153 °C
Cn1nc(-c2cc(O)c(C#N)cc2F)c(Cl)c1C(F)(F)F	151 °C

Query: Return value of melting point for input "CC(=O)N(CCP(=O)(O)O)Cc1cc([N+](=O)[O-])cc2[nH]c(=O)c(=O)[nH]c12" , no commentary.
Reply: 248 °C

Query: Return value of melting point for input "COc1cc(C(C)(C)CNC(=O)c2cccc(Br)c2)cc2c1OC(C)(C)C2" , no commentary.
Reply: 157 to 163 °C

Query: Return value of melting point for input "CCCCCNc1ccc(OC2CCN(C(C)=O)CC2)cc1" , no commentary.
Reply: 69 to 71 °C

---

melting point for assorted compounds

Solved cases below.
compound	melting point
Cc1ccc(F)cc1C(=O)Nc1ccc(C(=O)N2CCc3cn[nH]c3-c3sccc32)cc1	310 to 312 °C
CCCCCCCCCCCCCCCCSCC(CNS(=O)(=O)CCCCl)n1nnnc1C (stereo not given)	62 to 62.5 °C
COc1cc(Cc2cnc(N)nc2N)cc(OC)c1N	209 to 210 °C
CCC(CO)c1ccc(N=C2SCCS2)cc1 (stereo not given)	98.5 to 100 °C
COc1ccc(COc2cc3c(cc2-c2cc(C=CC(=O)O)ccc2OC)C(C)(C)CCC3(C)C)cc1	201 to 203 °C

Query: Return value of melting point for input "Fc1cc(F)c2[nH]c(-c3ccccc3)c(CCN3CCCCC3)c2c1" , no commentary.
Reply: 185 to 187 °C

Query: Return value of melting point for input "CC(C)(C)OC(=O)c1ccc(C(=O)NS(=O)(=O)c2ccccc2)cc1" , no commentary.
Reply: 141 to 143 °C

Query: Return value of melting point for input "O=c1cc(C2(Br)CCCCC2)oc2c(CBr)cccc12" , no commentary.
Reply: 134 to 135 °C

Query: Return value of melting point for input "CSC(=S)NN=Cc1c[nH]c(-c2ccccc2)n1" , no commentary.
Reply: 166 to 170 °C

Query: Return value of melting point for input "COc1ccc(CCC(=O)NNC(=O)c2ccc3ncsc3c2)cc1C(F)(F)F" , no commentary.
Reply: 208 to 209 °C
